ASSAY_TARGET: Recombinant human his-tagged IGF 1R extracellular domain protein (human) (UniProt P08069)
ASSAY_INFO: SPR, captured IgG, IGF-1R ECD-his analyte, dissociation pH 6
pKd: −log10 of the molar value.
Known pKd of a selection of binders

- BINDER: "VRDN-02514 (antibody, V domains shown) VH: EVQLVQSGGGLVKPGGSLRLSCAASGFTFSSFAMHWVRQAPGKGLEWISVIDTRGHTYYADSVKGRFTISRDNAKNSLYLQMNSLRAEDTAVYYCARLGNFYYGMDVWGQGTTVTVSS VL: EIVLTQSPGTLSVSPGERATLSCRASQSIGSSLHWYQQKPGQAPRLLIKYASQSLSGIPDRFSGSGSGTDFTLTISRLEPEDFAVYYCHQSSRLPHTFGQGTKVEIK"
  pKd: 10.55
- BINDER: "VRDN-02551 (antibody, V domains shown) VH: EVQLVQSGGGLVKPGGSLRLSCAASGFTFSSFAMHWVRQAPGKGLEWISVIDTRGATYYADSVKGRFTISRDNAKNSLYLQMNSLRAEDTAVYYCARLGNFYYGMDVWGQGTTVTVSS VL: EIVLTQSPGTLSVSPGERATLSCRASQSIGSSLHWYQQKPGQAPRLLIKYASQSLSGIPDRFSGSGSGTDFTLTISRLEPEDFAVYYCHQSSRLHHTFGQGTKVEIK"
  pKd: 10.46

Taken from patent US20240343814A1.
